tested on: EGFR L858R/T790M/C797S (Homo sapiens, UniProt P00533, C797S/L858R/T790M)
Sequence (P00533 25-1210 T790M/C797S/L858R): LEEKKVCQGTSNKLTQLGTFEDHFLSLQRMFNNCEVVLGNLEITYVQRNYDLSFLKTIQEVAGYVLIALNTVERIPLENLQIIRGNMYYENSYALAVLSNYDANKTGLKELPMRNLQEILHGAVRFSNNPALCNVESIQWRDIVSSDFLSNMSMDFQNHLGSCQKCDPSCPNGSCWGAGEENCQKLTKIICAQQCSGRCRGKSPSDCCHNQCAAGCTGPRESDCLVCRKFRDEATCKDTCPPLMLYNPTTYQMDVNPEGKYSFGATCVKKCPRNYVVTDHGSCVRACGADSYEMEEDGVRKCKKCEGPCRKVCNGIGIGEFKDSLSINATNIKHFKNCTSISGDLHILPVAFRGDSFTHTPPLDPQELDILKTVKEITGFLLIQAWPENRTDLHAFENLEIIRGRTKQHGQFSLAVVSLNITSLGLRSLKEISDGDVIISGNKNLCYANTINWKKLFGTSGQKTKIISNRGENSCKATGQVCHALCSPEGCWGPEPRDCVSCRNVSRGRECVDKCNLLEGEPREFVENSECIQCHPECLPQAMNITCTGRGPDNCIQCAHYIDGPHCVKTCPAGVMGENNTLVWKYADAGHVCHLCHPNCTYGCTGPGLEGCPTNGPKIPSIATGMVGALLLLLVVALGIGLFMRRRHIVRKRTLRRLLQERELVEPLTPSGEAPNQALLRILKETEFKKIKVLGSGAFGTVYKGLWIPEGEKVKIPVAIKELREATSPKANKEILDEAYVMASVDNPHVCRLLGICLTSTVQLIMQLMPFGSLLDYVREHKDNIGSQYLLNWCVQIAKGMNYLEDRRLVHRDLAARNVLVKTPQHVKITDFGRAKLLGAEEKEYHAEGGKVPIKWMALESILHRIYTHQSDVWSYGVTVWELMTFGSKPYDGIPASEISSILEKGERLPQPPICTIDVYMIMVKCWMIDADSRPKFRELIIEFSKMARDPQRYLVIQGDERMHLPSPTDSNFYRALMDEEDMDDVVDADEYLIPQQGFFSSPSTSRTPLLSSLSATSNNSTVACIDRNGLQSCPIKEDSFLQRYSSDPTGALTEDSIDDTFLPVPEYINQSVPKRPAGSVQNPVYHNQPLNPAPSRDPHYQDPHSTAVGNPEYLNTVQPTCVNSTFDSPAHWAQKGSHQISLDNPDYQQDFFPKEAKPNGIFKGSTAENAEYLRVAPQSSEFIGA
test method notes: Biochemical EGFR kinase assay (Lance Ultra TR-FRET), triple mutant L858R/T790M/C797S
recorded conditions: Km ATP; read-out: IC50 L858R/T790M/C797S (nM) Km ATP
Procedure: Biochemical EGFR kinase assays were conducted using Lance Ultra time-resolved fluorescence resonance energy transfer (TR-FRET) technology from Perkin-Elmer. […] Each kinase reactions were incubated at room temperature for 1 hour and then stopped by the addition of 4 μL of stop solution (10 mM EDTA). […] After 60 minutes incubation at room temperature the LANCE signal was measured on an EnVision Multilabel Reader (Perkin-Elmer). […]
property label: IC50 (nM)

Consider the worked cases shown below.
COC1CN(c2ccc(-c3cnc(Nc4ccnc(-c5cnn(S(=O)(=O)C6CC6)c5)n4)cc3N[C@H]3CC[C@@](C)(O)CC3)nc2)C1 0.3
COc1c(F)ccnc1-c1cnc(Nc2ccnc(-c3cnn(CC(F)F)c3)n2)cc1N[C@H]1CC[C@@](C)(O)CC1 43.9
C[C@]1(O)CC[C@@H](Nc2cc(Nc3ccnc(-c4cnn(S(=O)(=O)C5CC5)c4)n3)ncc2-c2cc(CN3CCC(F)(F)CC3)ccn2)CC1 2
O=S(=O)(C1CC1)n1cc(-c2nccc(Nc3cc(N[C@H]4CC[C@@H](CO)CC4)c(-c4ccc(N5CCC(F)(F)CC5)nn4)cn3)n2)cn1 0.8
O=S(=O)(C1CC1)n1cc(-c2nccc(Nc3cc(N[C@H]4CC[C@@H](F)CC4)c(-c4ccc(N5CCOCC5)cn4)cn3)n2)cn1 0.7
CN1CCC(Oc2ccc(-c3cnc(Nc4ccnc(-c5cnn(S(=O)(=O)C6CC6)c5)n4)cc3N[C@H]3CC[C@@H](F)CC3)nc2)CC1 0.4
CN(C)Cc1ccc(-c2cnc(Nc3ccnc(-c4cnn(S(=O)(=O)C5CC5)c4)n3)cc2N[C@H]2CC[C@@H](C(C)(C)O)CC2)nc1 0.2
CC(C)(O)c1ccnc(-c2cnc(Nc3ccnc(-c4cnn(S(=O)(=O)C5CC5)c4)n3)cc2N[C@H]2CC[C@@H](C(C)(C)O)CC2)c1 0.6

(a) CN(C)C[C@H]1CC[C@@H](Nc2cc(Nc3ccnc(-c4cnn(S(=O)(=O)C5CC5)c4)n3)ncc2-c2cc(C(C)(C)O)c(F)cn2)CC1
(b) O=S(=O)(C1CC1)n1cc(-c2nccc(Nc3cc(N[C@H]4CC[C@@H](CO)CC4)c(-c4cnc(OC(F)F)cn4)cn3)n2)cn1
(c) CN1CCN(c2ccc(-c3cnc(Nc4ccnc(-c5cnn(S(=O)(=O)C6CC6)c5)n4)cc3N[C@H]3CC[C@@H](C(C)(C)O)CC3)nc2)CC1
(d) CC(C)(O)c1ccc(-c2cnc(Nc3ccnc(-c4cnn(S(=O)(=O)C5CC5)c4)n3)cc2N[C@H]2CC[C@@H](CO)CC2)nn1
QUERY: Put these in order: smallest IC50 first, largest last. API: response body holds the labels in the requested order.
RESULT: d, a, c, b

====

tested on: EGFR wildtype (Homo sapiens)
Sequence (P00533 25-1210): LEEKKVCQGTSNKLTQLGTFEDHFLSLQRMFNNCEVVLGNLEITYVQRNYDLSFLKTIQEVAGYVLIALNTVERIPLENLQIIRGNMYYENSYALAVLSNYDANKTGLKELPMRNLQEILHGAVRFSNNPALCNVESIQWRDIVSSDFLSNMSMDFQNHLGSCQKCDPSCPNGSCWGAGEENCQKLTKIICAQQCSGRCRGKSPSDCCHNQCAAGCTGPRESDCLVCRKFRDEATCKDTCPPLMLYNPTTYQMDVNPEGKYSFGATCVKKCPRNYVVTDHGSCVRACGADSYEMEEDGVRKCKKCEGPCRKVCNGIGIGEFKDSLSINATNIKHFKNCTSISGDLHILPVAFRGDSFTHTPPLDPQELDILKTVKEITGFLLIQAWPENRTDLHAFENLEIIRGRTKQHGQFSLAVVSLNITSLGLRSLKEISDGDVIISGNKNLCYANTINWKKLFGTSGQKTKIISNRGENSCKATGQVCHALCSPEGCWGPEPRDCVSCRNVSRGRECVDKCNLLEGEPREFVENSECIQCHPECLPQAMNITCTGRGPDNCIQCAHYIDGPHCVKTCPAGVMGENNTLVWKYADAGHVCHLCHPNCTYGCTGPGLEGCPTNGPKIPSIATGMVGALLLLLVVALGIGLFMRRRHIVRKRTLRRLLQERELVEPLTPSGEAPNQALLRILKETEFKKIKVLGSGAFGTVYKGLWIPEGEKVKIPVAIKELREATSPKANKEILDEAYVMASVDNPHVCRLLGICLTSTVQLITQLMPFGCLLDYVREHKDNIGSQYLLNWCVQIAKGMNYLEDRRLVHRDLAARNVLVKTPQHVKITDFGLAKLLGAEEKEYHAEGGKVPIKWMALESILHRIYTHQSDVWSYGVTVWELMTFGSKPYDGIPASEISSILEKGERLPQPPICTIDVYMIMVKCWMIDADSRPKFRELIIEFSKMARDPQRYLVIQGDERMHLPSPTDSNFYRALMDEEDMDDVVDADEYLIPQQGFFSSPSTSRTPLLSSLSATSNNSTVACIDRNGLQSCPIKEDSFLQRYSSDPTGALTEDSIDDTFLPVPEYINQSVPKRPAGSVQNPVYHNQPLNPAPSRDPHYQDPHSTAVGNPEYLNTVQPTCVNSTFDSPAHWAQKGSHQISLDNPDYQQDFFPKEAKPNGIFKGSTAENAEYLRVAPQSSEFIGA
test method notes: Biochemical EGFR kinase assay (Lance Ultra TR-FRET), wildtype
recorded conditions: Km ATP; read-out: IC50 WT (nM) Km ATP
property label: IC50 (nM)

Answered examples (4):
CC(C)(O)c1ccc(-c2cnc(Nc3ccnc(-c4cnn(S(=O)(=O)C5CC5)c4)n3)cc2N[C@H]2CC[C@@H](CO)CC2)nn1 2.2
FC(F)Cn1cc(-c2nccc(Nc3cc(N[C@H]4CC[C@@H](F)CC4)c(-c4ccc(CN5CCOCC5)cn4)cn3)n2)cn1 69.8
C[C@]1(O)CC[C@@H](Nc2cc(Nc3ccnc(-c4cnn(S(=O)(=O)C5CC5)c4)n3)ncc2-c2ccc(N3CCC(F)(F)CC3)nn2)CC1 23.2
CN1CCC(Oc2ccc(-c3cnc(Nc4ccnc(-c5cnn(S(=O)(=O)C6CC6)c5)n4)cc3NC3CC(F)(F)C3)nc2)CC1 67.6

(I) CN1CCN(Cc2ccc(-c3cnc(Nc4ccnc(-c5cnn(S(=O)(=O)C6CC6)c5)n4)cc3N[C@H]3CC[C@](O)(CO)CC3)nc2)CC1
(II) C[C@]1(O)CC[C@@H](Nc2cc(Nc3ccnc(-c4cnn(S(=O)(=O)C5CC5)c4)n3)ncc2-c2ccc(N3CCCCC3)cn2)CC1
QUERY: Kindly identify which of I and II has the larger recorded IC50 value. Answer by stating the label of the chosen item.
RESULT: II
(II: 9.2 nM, I: 1.4 nM)

====

tested on: EGFR L858R/T790M/C797S (Homo sapiens, UniProt P00533, C797S/L858R/T790M)
test method notes: Biochemical EGFR kinase assay (Lance Ultra TR-FRET), triple mutant L858R/T790M/C797S
recorded conditions: read-out: IC50 L858R/T790M/C797S, 100 μM ATP
property label: pIC50
// returns pIC50 (minus log10 of molar concentration), number only

QUERY: Please give the measured pIC50 for this compound: CC(C)(O)[C@H]1CC[C@@H](Nc2cc(Nc3ccnc(-c4cnn(S(=O)(=O)C5CC5)c4)n3)ncc2-c2ccc(N3CC(F)(F)C3)cn2)CC1
RESULT: 8.36

====

tested on: EGFR L858R/C797S (Homo sapiens, UniProt P00533, C797S/L858R)
Sequence (P00533 25-1210 C797S/L858R): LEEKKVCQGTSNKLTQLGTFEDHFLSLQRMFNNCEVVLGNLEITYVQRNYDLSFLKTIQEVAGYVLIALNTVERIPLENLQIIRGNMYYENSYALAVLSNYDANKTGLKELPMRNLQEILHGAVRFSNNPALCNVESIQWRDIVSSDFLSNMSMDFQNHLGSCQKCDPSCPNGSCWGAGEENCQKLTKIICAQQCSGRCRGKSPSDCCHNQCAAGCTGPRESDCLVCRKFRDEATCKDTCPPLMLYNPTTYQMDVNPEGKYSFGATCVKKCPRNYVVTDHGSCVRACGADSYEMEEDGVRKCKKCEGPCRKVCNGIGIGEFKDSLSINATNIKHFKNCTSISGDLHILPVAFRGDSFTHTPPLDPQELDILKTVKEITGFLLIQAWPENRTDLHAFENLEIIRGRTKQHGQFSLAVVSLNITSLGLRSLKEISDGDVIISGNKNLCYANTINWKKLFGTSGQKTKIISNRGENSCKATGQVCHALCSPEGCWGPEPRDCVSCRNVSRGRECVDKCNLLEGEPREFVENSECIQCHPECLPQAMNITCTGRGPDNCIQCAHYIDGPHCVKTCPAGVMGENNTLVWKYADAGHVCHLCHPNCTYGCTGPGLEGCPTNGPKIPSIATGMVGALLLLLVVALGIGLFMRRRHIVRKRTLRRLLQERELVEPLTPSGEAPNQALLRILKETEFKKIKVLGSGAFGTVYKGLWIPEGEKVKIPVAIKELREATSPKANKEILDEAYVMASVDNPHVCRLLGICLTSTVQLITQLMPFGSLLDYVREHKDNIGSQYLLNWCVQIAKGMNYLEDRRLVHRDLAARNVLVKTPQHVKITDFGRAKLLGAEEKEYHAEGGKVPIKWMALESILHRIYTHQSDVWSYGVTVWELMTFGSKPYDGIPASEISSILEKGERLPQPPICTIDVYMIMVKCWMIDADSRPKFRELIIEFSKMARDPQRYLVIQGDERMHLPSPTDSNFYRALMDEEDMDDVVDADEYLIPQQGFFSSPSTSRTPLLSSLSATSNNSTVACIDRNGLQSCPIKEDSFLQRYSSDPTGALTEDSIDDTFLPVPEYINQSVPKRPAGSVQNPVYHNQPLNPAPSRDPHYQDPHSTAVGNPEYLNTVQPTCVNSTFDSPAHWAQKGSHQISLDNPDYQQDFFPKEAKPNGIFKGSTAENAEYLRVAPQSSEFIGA
test method notes: Biochemical EGFR kinase assay (Lance Ultra TR-FRET), double mutant L858R/C797S
recorded conditions: ATP at Km; read-out: IC50 L858R/C797S, Km ATP
Description: Biochemical EGFR kinase assays were conducted using Lance Ultra time-resolved fluorescence resonance energy transfer (TR-FRET) technology from Perkin-Elmer. […] Each kinase reactions were incubated at room temperature for 1 hour and then stopped by the addition of 4 μL of stop solution (10 mM EDTA). […] After 60 minutes incubation at room temperature the LANCE signal was measured on an EnVision Multilabel Reader (Perkin-Elmer). […]
property label: IC50 (nM)

compound	IC50 / nM
CN1CCC(Oc2ccc(-c3cnc(Nc4ccnc(-c5cnn(S(=O)(=O)C6CC6)c5)n4)cc3N[C@H]3CC[C@@](C)(O)CC3)nn2)CC1	0.1

(1) CN1CCC(Oc2ccc(-c3cnc(Nc4ccnc(-c5cnn(S(=O)(=O)C6CC6)c5)n4)cc3N[C@H]3CC[C@@H](F)CC3)nn2)CC1
(2) CC(C)Nc1cc(Nc2ccnc(-c3cnn(S(=O)(=O)C4CC4)c3)n2)ncc1-c1ccc(C(O)C(F)(F)F)cn1 (stereo not drawn)
QUERY: Of 1 versus 2 , which is the one with smaller reported IC50? Answer by quoting the chosen item's label.
RESULT: 1

====

tested on: EGFR L858R/T790M/C797S (Homo sapiens, UniProt P00533, C797S/L858R/T790M)
test method notes: Biochemical EGFR kinase assay (Lance Ultra TR-FRET), triple mutant L858R/T790M/C797S
recorded conditions: ATP at Km; read-out: IC50 L858R/T790M/C797S, Km ATP
property label: IC50 (nM)

Example cases with answers are listed next.
CC(C)(O)c1ccc(-c2cnc(Nc3ccnc(-c4cnn(S(=O)(=O)C5CC5)c4)n3)cc2N[C@H]2CC[C@@](C)(O)CC2)nc1 0.2
CC(C)(F)c1ccc(-c2cnc(Nc3ccnc(-c4cnn(S(=O)(=O)C5CC5)c4)n3)cc2N[C@H]2CC[C@@](C)(O)CC2)nc1 0.5
CN1CCC(Oc2ccc(-c3cnc(Nc4ccnc(-c5cnn(S(=O)(=O)C6CC6)c5)n4)cc3N[C@H]3CC[C@@](C)(O)CC3)nn2)CC1 0.1
O=S(=O)(C1CC1)n1cc(-c2nccc(Nc3cc(N[C@H]4CC[C@@H](CO)CC4)c(-c4ccc(OCCO)cn4)cn3)n2)cn1 0.3

(P) C[C@]1(O)CC[C@@H](Nc2cc(Nc3ccnc(-c4cnn(S(=O)(=O)C5CC5)c4)n3)ncc2-c2ccc(OC(F)(F)F)cn2)CC1
(Q) C[C@]1(O)CC[C@@H](Nc2cc(Nc3ccnc(-c4cnn(S(=O)(=O)C5CC5)c4)n3)ncc2-c2cnc(OC3CCN(CCF)CC3)cn2)CC1
QUERY: I'd appreciate it if you could identify which of P and Q has the greater IC50. Your answer should be the label of the entry you select.
RESULT: P

====

tested on: EGFR del19/T790M/C797S (Homo sapiens, UniProt P00533, C797S/DEL746-750/T790M)
Sequence (P00533 with tags, fused parts or gaps DEL746-750/T790M/C797S): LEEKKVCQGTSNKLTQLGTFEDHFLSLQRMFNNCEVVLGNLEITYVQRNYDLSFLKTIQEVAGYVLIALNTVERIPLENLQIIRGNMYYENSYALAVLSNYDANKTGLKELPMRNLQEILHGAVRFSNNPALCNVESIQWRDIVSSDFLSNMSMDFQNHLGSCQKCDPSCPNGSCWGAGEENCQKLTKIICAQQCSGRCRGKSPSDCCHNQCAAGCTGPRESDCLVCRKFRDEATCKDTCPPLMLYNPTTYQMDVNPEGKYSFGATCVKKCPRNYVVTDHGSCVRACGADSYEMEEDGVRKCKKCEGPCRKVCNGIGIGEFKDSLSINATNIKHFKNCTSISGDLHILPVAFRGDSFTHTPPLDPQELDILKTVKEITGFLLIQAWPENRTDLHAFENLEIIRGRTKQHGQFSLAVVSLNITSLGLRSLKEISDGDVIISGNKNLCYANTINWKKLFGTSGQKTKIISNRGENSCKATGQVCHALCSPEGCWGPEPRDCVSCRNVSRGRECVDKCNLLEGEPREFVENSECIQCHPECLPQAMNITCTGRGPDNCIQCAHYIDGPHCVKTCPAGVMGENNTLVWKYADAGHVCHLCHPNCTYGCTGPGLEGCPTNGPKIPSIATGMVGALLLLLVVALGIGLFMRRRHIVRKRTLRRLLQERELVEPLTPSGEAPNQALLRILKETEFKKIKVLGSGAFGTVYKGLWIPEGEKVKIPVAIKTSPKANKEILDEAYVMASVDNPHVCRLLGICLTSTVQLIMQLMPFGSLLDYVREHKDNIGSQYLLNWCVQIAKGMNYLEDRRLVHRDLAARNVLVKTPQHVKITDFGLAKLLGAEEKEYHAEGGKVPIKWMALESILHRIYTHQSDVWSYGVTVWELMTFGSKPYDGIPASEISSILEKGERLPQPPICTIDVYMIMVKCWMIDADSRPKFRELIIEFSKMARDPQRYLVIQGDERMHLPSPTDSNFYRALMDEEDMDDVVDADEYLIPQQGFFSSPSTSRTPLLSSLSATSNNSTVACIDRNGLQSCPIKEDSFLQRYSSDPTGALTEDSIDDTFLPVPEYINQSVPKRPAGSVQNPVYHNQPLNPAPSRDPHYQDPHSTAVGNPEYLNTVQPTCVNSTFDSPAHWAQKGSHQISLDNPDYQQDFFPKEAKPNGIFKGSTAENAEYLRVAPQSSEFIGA
test method notes: Biochemical EGFR kinase assay (Lance Ultra TR-FRET), triple mutant del19/T790M/C797S
recorded conditions: IC50 del19/T790M/C797S (nM) 100 μM ATP, 100 μM ATP
property label: IC50 (nM)

(a) Cc1ccnc(-c2cnc(Nc3ccnc(-c4cnn(S(=O)(=O)C5CC5)c4)n3)cc2N[C@H]2CC[C@@](C)(O)CC2)c1 [Example 12]
(b) CC(C)(O)[C@H]1CC[C@@H](Nc2cc(Nc3ccnc(-c4cnn(S(=O)(=O)C5CC5)c4)n3)ncc2-c2ccc(N3CCOCC3)cn2)CC1 [Example 45]
(c) C[C@]1(O)CC[C@@H](Nc2cc(Nc3ccnc(-c4cnn(S(=O)(=O)C5CC5)c4)n3)ncc2-c2ccc(C(F)F)cn2)CC1 [Example 63]
QUERY: Arrange these compounds by their IC50, starting with the largest number. Please express your ranking as an ordered list of the labels.
RESULT: b, a, c
